# Target under test: UniProt P55085
# Sequence (P55085 26-397): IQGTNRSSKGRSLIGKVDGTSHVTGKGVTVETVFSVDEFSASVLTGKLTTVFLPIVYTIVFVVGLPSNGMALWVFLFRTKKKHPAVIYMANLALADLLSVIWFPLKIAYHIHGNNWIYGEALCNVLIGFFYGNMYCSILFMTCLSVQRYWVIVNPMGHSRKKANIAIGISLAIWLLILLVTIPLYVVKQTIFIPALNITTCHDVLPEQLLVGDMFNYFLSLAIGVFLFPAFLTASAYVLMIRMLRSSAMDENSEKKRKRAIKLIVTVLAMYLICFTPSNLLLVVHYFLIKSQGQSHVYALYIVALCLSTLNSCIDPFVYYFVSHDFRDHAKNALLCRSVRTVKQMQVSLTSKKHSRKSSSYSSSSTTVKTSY
# Test name: IP-One HTRF assay for PAR2 antagonist activity (IP1 production)
# Assay type: cell-based
# Setup conditions: 1321N1 cells stably expressing human PAR2; agonist SLIGRL-NH2; read-out: hPAR2 IPpone IC50
# IC50 listing for each entry below
Metric name: IC50 (µM)

> print(dat)
                                   compound  relation.sign  reading
1  C/C=C/c1cc(F)ccc1C(O)c1ncc[nH]1 (stereo not drawn)              =     5.64
2  C[C@@H]1CCN(c2cc(F)ccc2C(O)c2ncc[nH]2)C1 (stereo partly drawn)              =     13.1
3         CCCc1cc(F)ccc1[C@@H](O)c1ncc[nH]1              >      100
4  Cc1coc2c(F)ccc(C(O)c3ncc[nH]3)c12 (stereo not drawn)              =     0.97
5  C/C=C\c1cc(F)ccc1C(O)c1ncc[nH]1 (stereo not drawn)              =     9.66
6          CCCc1cc(F)ccc1[C@H](O)c1ncc[nH]1              =     1.29
